# Tested on: zebrafish embryos
# experimental parameters: 5μM through 120 hpf, malformation rate
The entries below come with measured pericardial oedemata, Mean values attached.

| compound | system | unit of measurement | pericardial oedemata, Mean |
| --- | --- | --- | --- |
| C=CCOC(F)(C(F)(F)F)C(F)(F)F | zebrafish embryos | % | 0.00 |
| O=C(O)C(F)(F)C(F)(F)C(F)(F)F | zebrafish embryos | % | 1.11 |
| O=C(O)C(F)(F)C(F)(F)C(F)F | zebrafish embryos | % | 1.11 |
| O=C(O)CCC(F)(F)C(F)(F)C(F)(F)C(F)(F)C(F)(F)F | zebrafish embryos | % | 0.00 |
| O=C(OC(=O)C(F)(F)C(F)(F)F)C(F)(F)C(F)(F)F [compound 43, Pentafluoropropanoic anhydride] | zebrafish embryos | % | 4.44 |
| OCCC(F)(F)C(F)(F)C(F)(F)C(F)(F)F | zebrafish embryos | % | 3.33 |
| O=C(F)C(F)(F)C(F)(F)C(F)(F)C(=O)F [compound 63, Perfluoroglutaryl difluoride] | zebrafish embryos | % | 0.00 |

====

# Tested on: zebrafish larvae
# measurement description: Nontargeted analysis of PFAS metabolites in zebrafish larvae (high-resolution MS)
# experimental parameters: zebrafish larvae, Figure 5B
The reader will find reported Profile of metabolites (%): Alcohol values listed item by item below.
measurement label: Profile of metabolites (%): Alcohol

| structure notation | result |
| --- | --- |
| OCCCCC(F)(F)C(F)(F)C(F)(F)C(F)(F)F | 0.00 |
| OCC(F)(F)C(F)(F)C(F)(F)C(F)(F)C(F)(F)C(F)F | 0.00 |
| OCCC(F)(F)C(F)(F)C(F)(F)C(F)(F)C(F)(F)C(F)(F)F | 0.00 |
| OCC(F)(F)OC(F)(F)C(F)(F)OC(F)(F)CO | 48.26 |

====

# Test system: zebrafish embryos
# experimental parameters: 5 µM, exposure through 120 hpf
Listed molecules paired with reported Mortality (%)

| molecule | unit of measurement | Mortality (%) |
| --- | --- | --- |
| OCC(F)(F)OC(F)(F)C(F)(F)OC(F)(F)CO | % | 3.3 |
| FC(F)(F)C(F)(F)CNCC(F)(F)C(F)(F)F | % | 2.2 |
| OCC(F)(F)C(F)(F)C(F)(F)F | % | 1.1 |
| C=C(C)C(=O)OCCC(F)(F)C(F)(F)C(F)(F)C(F)(F)C(F)(F)C(F)(F)F [compound 2, 6:2 Fluorotelomer methacrylate] | % | 0 |
| NCC(F)(F)C(F)(F)C(F)(F)C(F)(F)F | % | 1.1 |
| O=C(O)C(F)(F)OC(F)(F)C(F)(F)OC(F)(F)C(=O)O | % | 1.1 |
| CCNS(=O)(=O)C(F)(F)C(F)(F)C(F)(F)C(F)(F)C(F)(F)C(F)(F)C(F)(F)C(F)(F)F [compound 24, N-Ethylperfluorooctanesulfonamide] | % | 3.3 |

====

A collection of molecules and their measured tail dysplasia, Mean
# Test system: zebrafish embryos
# experimental parameters: 5μM through 120 hpf, malformation rate
measurement label: tail dysplasia, Mean (%)

| molecule | system | measurement label | result |
| --- | --- | --- | --- |
| O=C(O)C(F)(F)OC(F)(F)C(F)(F)OC(F)(F)C(=O)O [compound 7, Perfluoro-3,6-dioxaoctane-1,8-dioic acid] | zebrafish embryos | tail dysplasia, Mean | 0.00 |
| NC(=O)C(F)(F)C(F)(F)C(F)(F)C(F)(F)F [compound 19, Nonafluoropentanamide] | zebrafish embryos | tail dysplasia, Mean | 0.00 |
| FC(F)=C(F)C(F)(F)C(F)(F)C(F)(F)C(F)F [compound 69, 6H-Perfluorohex-1-ene] | zebrafish embryos | tail dysplasia, Mean | 0.00 |
| FC(F)(F)COC(OCC(F)(F)F)OCC(F)(F)F [compound 1, tris(Trifluoroethoxy)methane] | zebrafish embryos | tail dysplasia, Mean | 2.22 |
| CCNS(=O)(=O)C(F)(F)C(F)(F)C(F)(F)C(F)(F)C(F)(F)C(F)(F)C(F)(F)C(F)(F)F [compound 24, N-Ethylperfluorooctanesulfonamide] | zebrafish embryos | tail dysplasia, Mean | 1.11 |

====

# System: zebrafish embryos
# experimental parameters: 5μM through 120 hpf, malformation rate

| molecule | unit of measurement | tail dysplasia, Mean |
| --- | --- | --- |
| O=S(=O)(F)C(F)(F)C(F)(F)C(F)(F)C(F)(F)F [compound 8, Perfluorobutanesulfonyl fluoride] | % | 3.33 |
| O=S(=O)([O-])C(F)(F)C(F)(F)C(F)(F)C(F)(F)C(F)(F)C(F)(F)F.[K+] [compound 26, Potassium perfluorohexanesulfonate] | % | 0.00 |
| CCN(CCO)S(=O)(=O)C(F)(F)C(F)(F)C(F)(F)C(F)(F)C(F)(F)C(F)(F)C(F)(F)C(F)(F)F [compound 9] | % | 0.00 |
| O=CC(F)(F)C(F)(F)C(F)(F)F [compound 42, Perfluorobutyraldehyde] | % | 0.00 |
| OCC(F)(F)C(F)(F)C(F)(F)F [compound 11, Heptafluorobutanol] | % | 0.00 |
| N.O=C(O)C(F)(F)C(F)(F)C(F)(F)C(F)(F)C(F)(F)C(F)(F)C(F)(F)F [compound 21, Ammonium perfluorooctanoate] | % | 2.22 |
| NCC(F)(F)C(F)(F)C(F)(F)C(F)(F)F [compound 68, 1H,1H-Perfluoropentylamine] | % | 0.00 |

====

# Test system: zebrafish embryos
# experimental parameters: 5 µM, exposure through 120 hpf
Please note: Mortality (%) exactly at 2% is Not met. Only values below 2% get Met.

| compound | answer label |
| --- | --- |
| OCCC(F)(F)C(F)(F)C(F)(F)C(F)(F)C(F)(F)C(F)(F)F | Met |
| O=C(O)CCC(F)(F)C(F)(F)C(F)(F)C(F)(F)C(F)(F)F | Met |
| FC(F)(F)COC(OCC(F)(F)F)OCC(F)(F)F | Met |
| O=S(=O)(F)C(F)(F)C(F)(F)C(F)(F)C(F)(F)F [compound 8, Perfluorobutanesulfonyl fluoride] | Not met |
| OCC(F)(F)C(F)(F)C(F)(F)C(F)(F)C(F)(F)C(F)(F)C(F)(F)C(F)(F)C(F)(F)C(F)(F)C(F)(F)F | Met |
| O=C(O)C=C(C(F)(F)F)C(F)(F)F | Not met |
| O=C(F)C(F)(F)C(F)(F)C(F)(F)C(=O)F [compound 63, Perfluoroglutaryl difluoride] | Not met |
| CC(O)C(F)(F)C(F)(F)F (stereo not shown) | Not met |
| FC(F)(F)COCC(F)(F)F [compound 27, Flurothyl, reference compound] | Met |
| NC(=O)C(F)(F)C(F)(F)C(F)(F)C(F)(F)F [compound 19, Nonafluoropentanamide] | Met |
| CC=CC(F)(F)C(F)(F)C(F)(F)F | Not met |
| C[N+](C)(C)CCCNS(=O)(=O)C(F)(F)C(F)(F)C(F)(F)C(F)(F)C(F)(F)C(F)(F)C(F)(F)C(F)(F)F | Not met |
| CCN(CCO)S(=O)(=O)C(F)(F)C(F)(F)C(F)(F)C(F)(F)C(F)(F)C(F)(F)C(F)(F)C(F)(F)F | Met |
| NC(C(F)(F)F)C(F)(F)F | Not met |
| FC(F)=C(F)OC(F)(F)C(F)(F)C(F)(F)F | Not met |
| OCCC(F)(F)C(F)(F)C(F)(F)C(F)(F)C(F)(F)C(F)(F)C(F)(F)C(F)(F)F | Not met |
| O=S(=O)([O-])C(F)(F)C(F)(F)C(F)(F)C(F)(F)F.[K+] [compound 57, Potassium perfluorobutanesulfonate] | Not met |
| OCCCCC(F)(F)C(F)(F)C(F)(F)C(F)(F)F | Met |
| O=CC(F)(F)C(F)(F)C(F)(F)C(F)F | Not met |

====

# Test system: zebrafish larvae
# measurement description: Bioconcentration factors (BCF) of PFAS in zebrafish larvae
# experimental parameters: zebrafish larvae, 5 µM exposure, 120 hpf, three replicates
Threshold 3 L/kg. BCF 5µM below it: MET. BCF 5µM at it or above: NOT MET.

| compound | answer label |
| --- | --- |
| OCC(F)(F)C(F)(F)C(F)(F)CO [compound 35, Hexafluoroamylene glycol] | MET |
| O=C(O)C=CC(F)(C(F)(F)F)C(F)(F)F [compound 56, 3-(Perfluoroisopropyl)-2-propenoic acid] | MET |
| O=C(O)C(F)(F)C(F)(F)C(F)(F)C(F)(F)C(F)(F)C(F)(F)C(F)(F)F [compound 74, Perfluorooctanoic acid] | NOT MET |
| O=C(/C=C(\O)C(F)(F)F)C(F)(F)F [compound 61, 3H-Perfluoro-4-hydroxy-3-penten-2-one] | NOT MET |
| O=S(=O)(O)CCC(F)(F)C(F)(F)C(F)(F)C(F)(F)F [compound 15, 4:2 Fluorotelomer sulfonic acid] | MET |
| O=C(O)C(F)(F)C(F)(F)C(F)F [compound 4, 4H-Perfluorobutanoic acid] | MET |
| O=C(O)C(F)(F)C(F)(F)C(F)(F)OC(F)(F)F [compound 28, Perfluoro(4-methoxybutanoic) acid] | MET |
| O=C(O)C(F)(F)C(F)(F)C(F)(F)C(F)(F)C(F)(F)F [compound 20, Perfluorohexanoic acid] | NOT MET |
| OCC(F)(F)C(F)(F)C(F)(F)C(F)(F)C(F)(F)C(F)(F)C(F)(F)C(F)(F)C(F)(F)C(F)(F)C(F)(F)F [compound 50, 11:1 Fluorotelomer alcohol] | MET |
| CNS(=O)(=O)C(F)(F)C(F)(F)C(F)(F)C(F)(F)C(F)(F)C(F)(F)C(F)(F)C(F)(F)F [compound 16, N-Methylperfluorooctanesulfonamide] | NOT MET |
| O=S(=O)([O-])C(F)(F)C(F)(F)C(F)(F)C(F)(F)C(F)(F)C(F)(F)F.[K+] [compound 26, Potassium perfluorohexanesulfonate] | NOT MET |
| O=C(O)C(F)(F)OC(F)(F)C(F)(F)OC(F)(F)F [compound 54, Perfluoro-3,6-dioxaheptanoic acid] | MET |
| N.O=C(O)C(F)(F)C(F)(F)C(F)(F)C(F)(F)C(F)(F)C(F)(F)C(F)(F)F [compound 21, Ammonium perfluorooctanoate] | NOT MET |
| O=C(O)C(F)(F)C(F)(F)C(F)(F)C(F)(F)C(F)(F)C(F)(F)C(F)(F)C(F)(F)F [compound 17, Perfluorononanoic acid] | NOT MET |
| O=C(O)C(F)(F)OC(F)(F)C(F)(F)OC(F)(F)C(F)(F)OC(F)(F)C(F)(F)C(F)(F)C(F)(F)F [compound 34, Perfluoro-3,6,9-trioxatridecanoic acid] | NOT MET |
| C[N+](C)(C)CCCNS(=O)(=O)C(F)(F)C(F)(F)C(F)(F)C(F)(F)C(F)(F)C(F)(F)C(F)(F)C(F)(F)F [compound 5] | NOT MET |
| OCC(F)(F)OC(F)(F)C(F)(F)OC(F)(F)CO [compound 32] | NOT MET |
| O=S(=O)([O-])C(F)(F)C(F)(F)C(F)(F)C(F)(F)C(F)(F)C(F)(F)C(F)(F)C(F)(F)F.[K+] [compound 6, Potassium perfluorooctanesulfonate] | NOT MET |
| CCNS(=O)(=O)C(F)(F)C(F)(F)C(F)(F)C(F)(F)C(F)(F)C(F)(F)C(F)(F)C(F)(F)F [compound 24, N-Ethylperfluorooctanesulfonamide] | NOT MET |
| O=C(O)C=C(C(F)(F)F)C(F)(F)F [compound 23] | MET |
| O=S(=O)(O)C(F)(F)C(F)(F)C(F)(F)C(F)(F)F [compound 73, Perfluorobutanesulfonic acid] | MET |
| O=S(=O)(O)C(F)(F)C(F)(F)C(F)(F)C(F)(F)C(F)(F)C(F)(F)C(F)(F)C(F)(F)F [compound 46, Perfluorooctanesulfonic acid] | NOT MET |
| O=C(O)C(F)(F)C(F)(F)C(F)(F)F [compound 12, Perfluorobutanoic acid] | MET |
| O=C(O)CCC(F)(F)C(F)(F)C(F)(F)C(F)(F)C(F)(F)F [compound 14, 2H,2H,3H,3H-Perfluorooctanoic acid] | NOT MET |
